# systemTested: HER2 (ErbB2) (Homo sapiens)
# experimentalConditions: bulk Kd, with formaldehyde cross-linking
endpointName: Kd (nM)
The answer is to be given in nM; state only the numeric part.

Inquiry: Look up Kd for this sequence: AGCAGCACAGAGGTCAGATGNNNNNNNNNNNNNNNNNNNNNNNNNNNNNNNNNNNNNNNNCCTATGCGTGCTACCGTGAA [HER2 round 1 pool]
Reply text: 22.1

====

# systemTested: PD-L1 (UniProt Q9NZQ7)
# Sequence (Q9NZQ7 19-238): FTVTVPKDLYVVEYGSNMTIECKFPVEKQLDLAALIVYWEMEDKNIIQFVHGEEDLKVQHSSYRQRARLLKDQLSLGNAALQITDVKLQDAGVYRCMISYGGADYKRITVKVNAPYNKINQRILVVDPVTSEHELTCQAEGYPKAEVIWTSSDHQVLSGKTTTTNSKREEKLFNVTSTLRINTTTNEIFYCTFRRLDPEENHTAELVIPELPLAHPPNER
# experimentalConditions: bulk Kd, bead-based fluorescence
endpointName: Kd (nM)
I only need the number, in nM, no unit after it.

Inquiry: What value of Kd has been recorded for this entry: AGCAGCACAGAGGTCAGATGNNNNNNNNNNNNNNNNNNNNNNNNNNNNNNNNNNNNNNNNCCTATGCGTGCTACCGTGAA [PD-L1 round 3 pool]
Reply text: 15.5

====

# systemTested: HER2 (ErbB2) (Homo sapiens) (UniProt P04626)
# experimentalConditions: no obvious binding
pKd: −log10 of the molar value.
endpointName: pKd

Inquiry: Request the reported pKd associated with AGCAGCACAGAGGTCAGATGNNNNNNNNNNNNNNNNNNNNNNNNNNNNNNNNNNNNNNNNCCTATGCGTGCTACCGTGAA [unselected ssDNA library (N40)]
Reply text: < 6.00

====

# systemTested: HER2 (ErbB2) (Homo sapiens)
# experimentalConditions: bulk Kd, with formaldehyde cross-linking; about 5-fold higher Kd without
endpointName: pKd
When answering, recall that pKd equals minus log10 of the concentration in mol/L, and write that number alone.

Inquiry: Which pKd is reported for this sequence? AGCAGCACAGAGGTCAGATGNNNNNNNNNNNNNNNNNNNNNNNNNNNNNNNNNNNNNNNNCCTATGCGTGCTACCGTGAA [HER2 round 3 pool]
Reply text: 8.17

====

# systemTested: PDGF-BB (Homo sapiens)
# experimentalConditions: bulk Kd, bead-based fluorescence
endpointName: Kd

Inquiry: Could you share which Kd value was measured for AGCAGCACAGAGGTCAGATGNNNNNNNNNNNNNNNNNNNNNNNNNNNNNNNNNNNNNNNNCCTATGCGTGCTACCGTGAA [PDGF-BB round 3 pool] ?
Reply text: 1.9 nM

====

# System: IgE (Homo sapiens)
# experimentalConditions: bulk Kd, bead-based fluorescence
endpointName: Kd (nM)
Quick reminder: number only, in nM, skip the unit.

Inquiry: // query Kd value for entry AGCAGCACAGAGGTCAGATGNNNNNNNNNNNNNNNNNNNNNNNNNNNNNNNNNNNNNNNNCCTATGCGTGCTACCGTGAA [IgE round 3 pool]
Reply text: 8.4
